# System Under Test: human α7 nicotinic acetylcholine receptor (HEK cell line stably expressing human RIC-3 and human α7) (Homo sapiens, UniProt P36544)
# Construct: host or cells: HEK cell line (PrecisION hnAChR α7/RIC-3)
# Sequence (P36544 23-502): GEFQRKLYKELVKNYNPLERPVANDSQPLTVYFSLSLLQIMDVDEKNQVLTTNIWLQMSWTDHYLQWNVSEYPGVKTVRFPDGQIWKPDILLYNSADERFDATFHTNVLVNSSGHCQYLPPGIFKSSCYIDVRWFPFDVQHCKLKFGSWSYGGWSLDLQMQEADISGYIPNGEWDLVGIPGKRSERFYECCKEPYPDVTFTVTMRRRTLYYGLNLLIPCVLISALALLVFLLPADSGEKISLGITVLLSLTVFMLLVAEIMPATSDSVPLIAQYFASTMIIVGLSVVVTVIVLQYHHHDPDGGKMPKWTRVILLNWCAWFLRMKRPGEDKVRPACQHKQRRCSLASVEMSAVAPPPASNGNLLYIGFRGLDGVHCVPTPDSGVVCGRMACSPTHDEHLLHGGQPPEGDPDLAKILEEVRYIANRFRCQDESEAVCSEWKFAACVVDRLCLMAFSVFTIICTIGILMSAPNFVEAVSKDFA
# Test Summary: Automated patch-clamp electrophysiology functional assay (Assay A), IonFlux HT, whole-cell population patch
# Assay type: cell-based
# Measurement Conditions: automated patch-clamp electrophysiology functional assay (Assay A); read-out: α7 nAChR EC50
# Experimental: The α7 nAChR positive allosteric modulator (PAM) activity of the present compounds may be tested using assays known in the art. […] The assay was performed using the IonFlux HT in a whole-cell, population patch configuration. See Golden et al. Assay Drug Dev. Technol. […] The compounds were assessed for their ability to modulate the function of the human 7 nAChR stably expressed in a HEK cell line both in the presence, and in the absence of the natural 7 agonist acetylcholine. […]
Decide using EC50 alone. Strictly below 800 nM: true. Equal to or above 800 nM: false.

NS(=O)(=O)N1CCC2(CC1)C[C@H]2c1nc(-c2cc(F)ccc2C(F)(F)F)no1 = false
NS(=O)(=O)N1CCC2(CC1)C[C@H]2c1noc(C2CC(c3ccccc3)C2)n1 (mixture of isomers) = false
NS(=O)(=O)N1CCC2(CC1)[C@H](c1coc(-c3conc3C3CC3)n1)C2(F)F = true

Kindly consider the entry below.
Q: Please state whether EC50 is below 800 nM for NS(=O)(=O)N1CCC2(C(F)C1)C(c1nc(-c3conc3C3CC3)no1)C2(F)F (single isomer, unassigned) [Example I14]
Result: true

----------
# System Under Test: human α7 nicotinic acetylcholine receptor (HEK cell line stably expressing human RIC-3 and human α7) (Homo sapiens)
# Construct: host or cells: HEK cell line (PrecisION hnAChR α7/RIC-3)
# Test Summary: Automated patch-clamp electrophysiology functional assay (Assay A), IonFlux HT, whole-cell population patch
# Assay type: cell-based
# Measurement Conditions: HEK cells expressing human α7/RIC-3; test compound with or without 40 μM acetylcholine; holding potential −60 mV; room temperature; read-out: α7 nAChR Potency
I'd be grateful if you could share measured EC50 for these entries.

Some molecules with recorded EC50:
NS(=O)(=O)N1CCC2(CC1)C[C@H]2c1noc(-c2ccc(F)cc2OC(F)F)n1 = 100 to 500 nM
NS(=O)(=O)N1CCC2(CC1)C(c1nc(C3CCCCC3)no1)C2(F)F (stereo not shown) = 100 to 500 nM
NS(=O)(=O)N1CCC2(CC1)[C@H](c1ncc(-c3ccc(F)cc3C(F)(F)F)o1)C2(F)F = < 100 nM
NS(=O)(=O)N1CCC2(CC1)[C@H](c1noc(-c3cc(C(F)(F)F)nn3C3CC3)n1)C2(F)F = 100 to 500 nM
NS(=O)(=O)N1CCC2(CC1)C[C@H]2c1noc(-c2ocnc2C(F)(F)F)n1 = 500 to 5000 nM
Cc1cn(C2CC2)nc1-c1nc([C@@H]2C(F)(F)C23CCN(S(N)(=O)=O)CC3)no1 = 100 to 500 nM
COc1ccc(Cl)cc1-c1noc(C2CC23CCN(C(=O)NCc2ccns2)CC3)n1 (racemic) = 500 to 5000 nM
NS(=O)(=O)N1CCC2(CC1)C[C@H]2c1noc(-c2cccc(C(F)(F)F)n2)n1 = 500 to 5000 nM
NS(=O)(=O)N1CCC2(C(F)C1)C(c1nc(-c3conc3C3CC3)no1)C2(F)F (mixture of isomers) [Example I11] = 500 to 5000 nM
NS(=O)(=O)N1CCC2(CC1)C[C@H]2c1noc(-c2ccnn2C2CC2)n1 = 500 to 5000 nM

Look at each molecule and report its EC50.
1. NS(=O)(=O)N1CCC2(CC1)C(c1nc(-c3ccnc(C(F)(F)F)c3)no1)C2(F)F (stereo not shown)
2. NS(=O)(=O)N1CCC2(CC1)[C@@H](c1nc(-c3cccc(F)c3)no1)C2(F)F
3. NS(=O)(=O)N1CCC2(CC1)C[C@H]2c1noc(-c2cnn(CC(F)(F)F)c2)n1
4. NS(=O)(=O)N1CCC2(CC1)C[C@H]2c1cnn(-c2cccc(OC(F)(F)F)c2)c1
5. NS(=O)(=O)N1CCC2(CC1)C[C@H]2c1noc(-c2ccnc(OCC(F)(F)F)c2)n1
6. NS(=O)(=O)N1CCC2(CC1)[C@H](c1noc(-c3cnn4c3CSC4)n1)C2(F)F

Result:
1. 500 to 5000 nM
2. 500 to 5000 nM
3. 500 to 5000 nM
4. 100 to 500 nM
5. 500 to 5000 nM
6. 500 to 5000 nM
